Assay: Growth inhibition of human SF269 cells
Assay type: functional

{"columns": ["compound-smiles", "GI50 [µg/mL]"],
 "data": [
  ["O=C1N[C@H]2[C@H](O)[C@H](O)[C@@H](O)[C@H](O)[C@@H]2c2cc3c(c(O)c21)OCO3", 0.017],
  ["CC(=O)O[C@H]1C=C2c3cc4c(cc3C(=O)N[C@H]2[C@H](O)[C@@H]1O)OCO4", 0.19],
  ["CC(=O)O[C@H]1[C@@H]2NC(=O)c3cc4c(cc3[C@H]2C[C@H](OC(C)=O)[C@H]1OC(C)=O)OCO4", 0.3],
  ["Cl.O[C@@H]1[C@H](O)[C@@H](O)C[C@@H]2c3cc4c(cc3CN[C@@H]12)OCO4", 1.6]
]}

* * *

System: NCI-H460
Test: Growth inhibition of human NCI-H460 cells
Type: functional
// reported log10 GI50 per item
assay-endpoint: log10 GI50 (log10 of the value in µg/mL)

{"columns": ["molecule", "assay-endpoint", "experimental-result"],
 "data": [
  ["O=C1N[C@@H]2C(=C[C@H](O)[C@@H](O)[C@H]2O)c2cc3c(c(O)c21)OCO3 [NARCICLASINE]", "log10 GI50", -1.49],
  ["O[C@@H]1[C@H](O)[C@@H](O)C[C@@H]2c3cc4c(cc3CN[C@@H]12)OCO4", "log10 GI50", 0.88],
  ["CC(=O)O[C@H]1C=C2c3cc4c(cc3C(=O)N[C@H]2[C@H](O)[C@@H]1O)OCO4", "log10 GI50", -0.49],
  ["O=C1N[C@@H]2C(=C[C@H](O)[C@@H](O)[C@H]2O)c2cc3c(cc21)OCO3", "log10 GI50", -0.96],
  ["O=C1N[C@H]2[C@H](O)[C@H](O)[C@@H](O)[C@H](O)[C@@H]2c2cc3c(c(O)c21)OCO3 [PANCRATISTATIN]", "log10 GI50", -1.32],
  ["Cl.O[C@@H]1[C@H](O)[C@@H](O)C=C2c3cc4c(cc3CN[C@H]21)OCO4", "log10 GI50", 0.53],
  ["CC(=O)O[C@@H]1[C@H](OC(C)=O)[C@@H](OC(C)=O)C=C2c3cc4c(cc3C(=O)N[C@H]21)OCO4 [LYCORICIDINE TRIACETATE]", "log10 GI50", 0.08],
  ["CC(=O)O[C@H]1[C@@H]2NC(=O)c3cc4c(cc3[C@H]2C[C@H](OC(C)=O)[C@H]1OC(C)=O)OCO4", "log10 GI50", 0.18],
  ["Cl.O[C@@H]1[C@H](O)[C@@H](O)C[C@@H]2c3cc4c(cc3CN[C@@H]12)OCO4", "log10 GI50", -0.11],
  ["O=C1N[C@H]2[C@H](O)[C@H](O)[C@@H](O)C[C@@H]2c2cc3c(cc21)OCO3", "log10 GI50", -1.43]
]}

* * *

Tested on: DU-145
Experiment: Growth inhibition of human DU145 cells
Assay type: functional
The entries below are paired with their reported GI50.
assay-endpoint: GI50 (µg/mL)

{"columns": ["compound", "experimental-result"],
 "data": [
  ["O[C@@H]1[C@H](O)[C@@H](O)C[C@@H]2c3cc4c(cc3CN[C@@H]12)OCO4", 4.4],
  ["O=C1N[C@@H]2C(=C[C@H](O)[C@@H](O)[C@H]2O)c2cc3c(cc21)OCO3", 0.062],
  ["CC(=O)O[C@@H]1[C@H](OC(C)=O)[C@@H](OC(C)=O)C=C2c3cc4c(cc3C(=O)N[C@H]21)OCO4 [LYCORICIDINE TRIACETATE]", 0.48]
]}
